Origin of the recorded values: BigSolDB 2.1

conditions: in n-butyl acetate, 283.15 K
experimentalEndpoint: solubility (mole fraction)

> print(dat)
                                compound        experimentalendpoint  obsvalue
1  CC(=O)NC1CCSC1=O (stereo unspecified)  solubility (mole fraction)    0.0141

----------
settings: in n-pentanol, 308.15 K
experimentalEndpoint: solubility (mole fraction)

> print(dat)
                                molecule  obsvalue
1  CC(=O)NC1CCSC1=O (stereo unspecified)    0.0769

----------
details: in n-propyl acetate, 303.15 K
experimentalEndpoint: solubility (mole fraction)

> print(dat)
                                molecule  obsvalue
1  CC(=O)NC1CCSC1=O (stereo unspecified)    0.0296
